Molecular target: T1, MBP-NobZIP77 (Nannochloropsis oceanica, UniProt A0A8F2IEU3 1-466)
T1 sequence: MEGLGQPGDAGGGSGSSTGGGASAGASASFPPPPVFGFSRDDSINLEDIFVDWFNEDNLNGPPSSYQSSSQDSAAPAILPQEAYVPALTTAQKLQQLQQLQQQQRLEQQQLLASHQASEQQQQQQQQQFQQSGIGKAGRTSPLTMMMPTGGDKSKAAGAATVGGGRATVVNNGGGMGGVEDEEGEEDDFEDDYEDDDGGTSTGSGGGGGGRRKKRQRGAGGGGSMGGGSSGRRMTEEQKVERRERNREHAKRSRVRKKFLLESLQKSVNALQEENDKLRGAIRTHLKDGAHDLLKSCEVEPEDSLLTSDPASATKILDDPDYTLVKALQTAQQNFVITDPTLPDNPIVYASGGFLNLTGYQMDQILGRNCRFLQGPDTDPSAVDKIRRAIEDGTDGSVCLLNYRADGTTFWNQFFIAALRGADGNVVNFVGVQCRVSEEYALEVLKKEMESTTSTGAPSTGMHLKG
Assay: EMSA; LightShift Chemiluminescent EMSA kit binding buffer (composition, salt and pH not stated), 30 min; light series: 5 nM probe, 25 °C, 60 min, NobZIP77 1:2 dilutions from 24 mM (so in the source); 6% native PAGE at 4 °C
Conditions: protein: recombinant; tags: MBP (pMAL-p4X); chain copies: 2; label: 5' biotin; blunt

| Binder | binding result |
| --- | --- |
| g2171 (PAP) promoter probe (dsDNA) DNA 1: ACCGCTCCTTACGTGGTTAACATCACCGCTCCTTACGTGGTTAACATC DNA 2: GATGTTAACCACGTAAGGAGCGGTGATGTTAACCACGTAAGGAGCGGT | binds |
| g9477 (actin) control probe (dsDNA) DNA 1: TTCGATAAATGGGGCCGATAAGTGAGGGAAGATGATTTGAGTAAAGTA DNA 2: TACTTTACTCAAATCATCTTCCCTCACTTATCGGCCCCATTTATCGAA | no binding |
| g5641 (FAE) promoter probe (dsDNA) DNA 1: TGGATTGATGGACGTGGAAGCAGCTGGATTGATGGACGTGGAAGCAGC DNA 2: GCTGCTTCCACGTCCATCAATCCAGCTGCTTCCACGTCCATCAATCCA | binds |
| g4867 (hsp70) control probe (dsDNA) DNA 1: TGTGGGGCCTCAGATAAAGGTGCGGCACGTAGGGAGAGACATTG DNA 2: CAATGTCTCTCCCTACGTGCCGCACCTTTATCTGAGGCCCCACA | no binding |

Source: paper PMC8964759
